# TARGET_OR_TEST_SYSTEM: BRM (Homo sapiens)
# Construct: In-Cell Western Screen of BRM Degradation in SW1573 Cells; endogenous in cells; host or cells: SW1573
# ASSAY_TEXT: In-cell Western screen of BRM degradation in SW1573 cells (Dmax and DC50)
# Format: cell-based
# EXPERIMENTAL_PARAMETERS: BRM degradation, SW1573 cells; read-out: DC50
Exercise: state measured DC50 for each of the compounds provided.

The reported value for Cc1ncsc1-c1ccc(CNC(=O)[C@@H]2C[C@@H](O)CN2C(=O)[C@@H](c2cc(CCCOCCOCCOCCn3cc(-c4cc(-c5ccccc5O)nnc4N)cn3)no2)C(C)C)cc1 in terms of DC50 is 2.5 to 10 nM

The reported value for Cc1ncsc1-c1ccc([C@H](C)NC(=O)[C@@H]2C[C@@H](O)CN2C(=O)C(c2cc(OCCN3[C@H](C)C[C@H](O[C@H]4C[C@H](Oc5cc(N6C7CCC6CN(c6cc(-c8ccccc8O)nnc6N)C7)ccn5)C4)C[C@@H]3C)no2)C(C)C)cc1 (mixture of isomers) in terms of DC50 is < 2.5 nM

The reported value for Cc1ncsc1-c1ccc([C@@H](COCC(C)C)NC(=O)[C@@H]2C[C@@H](O)CN2C(=O)[C@H](c2cc(OCCN3CCN(CCOc4cc(N5C6CCC5CN(c5cc(-c7ccccc7O)nnc5N)C6)ccn4)CC3)no2)C(C)C)cc1 in terms of DC50 is > 30 nM

The reported value for Cc1ncsc1-c1ccc([C@@H](CCC#N)NC(=O)[C@@H]2C[C@@H](O)CN2C(=O)[C@@H](c2cc(N3CCC(CN4CCC(O[C@H]5C[C@H](Oc6cc(N7C8CCC7CN(c7cc(-c9ccccc9O)nnc7N)C8)ccn6)C5)CC4)CC3)no2)C(C)C)cc1 in terms of DC50 is 10 to 30 nM

----------
Exercise: state measured Dmax for each of the molecules provided.
# TARGET_OR_TEST_SYSTEM: BRM (Homo sapiens, UniProt P51531)
# Construct: In-Cell Western Screen of BRM Degradation in SW1573 Cells; endogenous in cells; host or cells: SW1573
# Sequence (P51531 whole entry): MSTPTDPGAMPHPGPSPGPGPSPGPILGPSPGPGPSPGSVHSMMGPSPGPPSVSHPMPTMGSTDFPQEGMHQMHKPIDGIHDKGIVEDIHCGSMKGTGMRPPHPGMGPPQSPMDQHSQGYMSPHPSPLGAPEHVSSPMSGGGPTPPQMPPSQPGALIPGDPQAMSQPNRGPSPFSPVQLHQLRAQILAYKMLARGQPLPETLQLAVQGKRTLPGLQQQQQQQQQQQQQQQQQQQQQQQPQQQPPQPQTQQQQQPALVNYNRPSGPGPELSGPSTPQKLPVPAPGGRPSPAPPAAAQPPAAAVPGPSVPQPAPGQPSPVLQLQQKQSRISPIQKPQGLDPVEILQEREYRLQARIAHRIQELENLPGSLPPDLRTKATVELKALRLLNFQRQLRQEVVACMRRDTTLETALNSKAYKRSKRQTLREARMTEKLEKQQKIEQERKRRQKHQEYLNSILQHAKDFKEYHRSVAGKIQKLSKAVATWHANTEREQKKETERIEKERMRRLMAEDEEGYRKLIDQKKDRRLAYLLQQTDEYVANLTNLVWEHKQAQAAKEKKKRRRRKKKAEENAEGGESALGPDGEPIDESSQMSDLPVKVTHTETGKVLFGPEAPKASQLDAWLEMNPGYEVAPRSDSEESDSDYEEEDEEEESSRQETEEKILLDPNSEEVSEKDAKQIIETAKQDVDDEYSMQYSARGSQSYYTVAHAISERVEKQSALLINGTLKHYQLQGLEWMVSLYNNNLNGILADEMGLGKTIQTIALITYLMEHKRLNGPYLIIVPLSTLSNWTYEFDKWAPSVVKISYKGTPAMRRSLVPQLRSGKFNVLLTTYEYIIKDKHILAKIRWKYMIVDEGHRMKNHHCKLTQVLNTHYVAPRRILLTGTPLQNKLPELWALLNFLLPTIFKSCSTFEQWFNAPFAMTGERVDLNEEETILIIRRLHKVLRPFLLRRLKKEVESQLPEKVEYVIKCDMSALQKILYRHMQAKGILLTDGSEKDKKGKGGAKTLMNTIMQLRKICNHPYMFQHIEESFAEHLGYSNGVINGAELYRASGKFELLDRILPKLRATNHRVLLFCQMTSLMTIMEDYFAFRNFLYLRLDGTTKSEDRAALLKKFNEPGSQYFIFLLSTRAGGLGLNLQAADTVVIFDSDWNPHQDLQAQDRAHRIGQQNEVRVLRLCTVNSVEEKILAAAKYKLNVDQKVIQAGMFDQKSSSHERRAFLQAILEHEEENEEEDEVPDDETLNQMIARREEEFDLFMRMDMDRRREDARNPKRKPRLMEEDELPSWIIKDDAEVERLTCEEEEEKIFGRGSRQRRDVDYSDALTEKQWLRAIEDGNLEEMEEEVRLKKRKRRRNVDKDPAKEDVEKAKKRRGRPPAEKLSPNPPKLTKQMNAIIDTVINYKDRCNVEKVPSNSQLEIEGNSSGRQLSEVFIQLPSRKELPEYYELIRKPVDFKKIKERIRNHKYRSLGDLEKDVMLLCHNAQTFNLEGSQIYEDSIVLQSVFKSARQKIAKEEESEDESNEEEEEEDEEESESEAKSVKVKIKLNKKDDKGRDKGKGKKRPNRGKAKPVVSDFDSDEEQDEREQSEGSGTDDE
# ASSAY_TEXT: In-cell Western screen of BRM degradation in SW1573 cells (Dmax and DC50)
# Format: cell-based
# EXPERIMENTAL_PARAMETERS: BRM degradation, SW1573 cells; Table 2D; read-out: **Dmax (%) (% degraded)

The reported value for Cc1ncsc1-c1ccc([C@H](C)NC(=O)[C@@H]2C[C@@H](O)CN2C(=O)[C@@H](c2cc(N3CCC(CN4CCC([C@@H](C)n5cc(-c6cc(-c7ccccc7O)nnc6N)cn5)CC4)CC3)no2)C(C)C)cc1 (single isomer, unassigned) in terms of Dmax is > 75%

The reported value for Cc1ncsc1-c1ccc([C@H](C)NC(=O)[C@@H]2C[C@@H](O)CN2C(=O)[C@H](c2cc(OCC[C@@H]3CCN(C[C@H]4C[C@H](Oc5cc(N6C7CCC6CN(c6cc(-c8ccccc8O)nnc6N)C7)ccn5)C4)C[C@H]3C)no2)C(C)C)cc1 (racemic) in terms of Dmax is > 75%

The reported value for CC(C)[C@@H](C(=O)N1C[C@H](O)C[C@H]1C(=O)N[C@@H](C)c1ccc(-c2ccnn2C)cc1)c1cc(N2CCC(CN3CCC(O[C@H]4C[C@H](Oc5cc(N6C7CCC6CN(c6cc(-c8ccccc8O)nnc6N)C7)ccn5)C4)CC3)CC2)no1 in terms of Dmax is > 75%

The reported value for Cc1ncsc1-c1ccc([C@@H](NC(=O)[C@@H]2C[C@@H](O)CN2C(=O)[C@@H](c2cc(N3CCC(CN4CCC(O[C@H]5C[C@H](Oc6cc(N7C8CCC7CN(c7cc(-c9ccccc9O)nnc7N)C8)ccn6)C5)CC4)CC3)no2)C(C)C)C(F)F)cc1 in terms of Dmax is > 75%

The reported value for Cc1ncsc1-c1ccc([C@H](C)NC(=O)[C@@H]2C[C@@H](O)CN2C(=O)[C@H](c2cc(OCC[C@H]3CCN(C[C@H]4C[C@H](Oc5cc(N6C7CCC6CN(c6cc(-c8ccccc8O)nnc6N)C7)ccn5)C4)C[C@@H]3C)no2)C(C)C)cc1 (racemic) in terms of Dmax is > 75%

The reported value for Cc1ncsc1-c1ccc([C@H](C)NC(=O)[C@@H]2C[C@@H](O)CN2C(=O)[C@H](c2cc(OCC[C@H]3CCN(C[C@H]4C[C@H](Oc5cc(N6C7CCC6CN(c6cc(-c8ccccc8O)nnc6N)C7)ccn5)C4)[C@@H](C)[C@H]3C)no2)C(C)C)cc1 (single isomer, unassigned) in terms of Dmax is > 75%

----------
# TARGET_OR_TEST_SYSTEM: BRM (Homo sapiens, UniProt P51531)
# Construct: In-Cell Western Screen of BRM Degradation in SW1573 Cells; endogenous in cells; host or cells: SW1573
# ASSAY_TEXT: In-cell Western screen of BRM degradation in SW1573 cells (Dmax and DC50)
# Assay type: cell-based
# EXPERIMENTAL_PARAMETERS: target protein degradation; read-out: BRM DC50
READOUT: DC50

The reported value for Cc1ncsc1-c1ccc([C@H](C)NC(=O)[C@@H]2C[C@@H](O)CN2C(=O)[C@H](c2cc(OCCN3CCC(OC4CN(c5cc(N6C7CCC6CN(c6cc(-c8ccccc8O)nnc6N)C7)ccn5)C4)CC3)no2)C(C)C)cc1 in terms of DC50 is 2.5 to 10 nM

The reported value for Cc1ncsc1-c1ccc([C@H](C)NC(=O)[C@@H]2C[C@@H](O)CN2C(=O)[C@@H](c2cc(OCCC3CCN(C(=O)[C@H]4C[C@@H](CN5CCC([C@H](C)n6cc(-c7cc(-c8ccccc8O)nnc7N)cn6)CC5)C4)CC3)no2)C(C)C)cc1 in terms of DC50 is 10 to 30 nM

----------
# TARGET_OR_TEST_SYSTEM: BRM (Homo sapiens, UniProt P51531)
# Construct: In-Cell Western Screen of BRM Degradation in SW1573 Cells; endogenous in cells; host or cells: SW1573
# ASSAY_TEXT: In-cell Western screen of BRM degradation in SW1573 cells (Dmax and DC50)
# Format: cell-based
# EXPERIMENTAL_PARAMETERS: target protein degradation; read-out: BRM DC50
Exercise: state measured DC50 for each of the molecules provided.

The reported value for Cc1ncsc1-c1ccc([C@H](C)NC(=O)[C@@H]2C[C@@H](O)CN2C(=O)[C@H](c2cc(OCCC3CCN(C(=O)[C@H]4C[C@H](CN5CCC([C@H](C)n6cc(-c7cc(-c8ccccc8O)nnc7N)cn6)CC5)C4)CC3)no2)C(C)C)cc1 in terms of DC50 is < 2.5 nM

The reported value for Cc1ncsc1-c1ccc([C@H](C)NC(=O)[C@@H]2C[C@@H](O)CN2C(=O)[C@@H](c2cc(OCCCN3CCN(CCCOc4cc(N5C6CCC5CN(c5cc(-c7ccccc7O)nnc5N)C6)ccn4)CC3)no2)C(C)C)cc1 in terms of DC50 is < 2.5 nM

The reported value for Cc1ncsc1-c1ccc([C@H](C)NC(=O)[C@@H]2C[C@@H](O)CN2C(=O)[C@@H](c2cc(OCCN3CCC(O[C@H]4C[C@H](Oc5cccc(N6C7CCC6CN(c6cc(-c8ccccc8O)nnc6N)C7)c5)C4)CC3)no2)C(C)C)cc1 in terms of DC50 is < 2.5 nM

The reported value for COCCOCCOCCOCCOCCOCCOCCOCCOCCOCCOCCOCCOCCOCCOCCOCCOCCOCCOCCOCCOCCOCCOC(=O)CCC(=O)O[C@@H]1C[C@@H](C(=O)N[C@@H](C)c2ccc(-c3scnc3C)cc2)N(C(=O)[C@@H](c2cc(OCCN3CCC(O[C@H]4C[C@H](Oc5cc(N6C7CCC6CN(c6cc(-c8ccccc8O)nnc6N)C7)ccn5)C4)CC3)no2)C(C)C)C1 in terms of DC50 is < 2.5 nM

----------
Exercise: state measured DC50 for each of the compounds provided.
# TARGET_OR_TEST_SYSTEM: BRM (Homo sapiens)
# Construct: In-Cell Western Screen of BRM Degradation in SW1573 Cells; endogenous in cells; host or cells: SW1573
# ASSAY_TEXT: In-cell Western screen of BRM degradation in SW1573 cells (Dmax and DC50)
# Type: cell-based
# EXPERIMENTAL_PARAMETERS: BRM degradation, SW1573 cells; read-out: DC50

The reported value for Cc1cnnn1-c1ccc([C@H](C)NC(=O)[C@@H]2C[C@@H](O)CN2C(=O)[C@H](c2cc(OCCN3CCN(CCOc4cc(N5C6CCC5CN(c5cc(-c7ccccc7O)nnc5N)C6)ccn4)CC3)no2)C(C)C)cc1 in terms of DC50 is > 30 nM

The reported value for Cc1ncsc1-c1ccc([C@H](C)NC(=O)[C@@H]2C[C@@H](O)CN2C(=O)[C@H](c2cc(OCCCC#Cc3ccc(O[C@H]4C[C@H](Oc5cc(N6C7CCC6CN(c6cc(-c8ccccc8O)nnc6N)C7)ccn5)C4)cn3)no2)C(C)C)cc1 in terms of DC50 is > 30 nM

Hello, the source for this data is patent US12539292B2, in case you need it.
